All figures here come from ChEMBL document CHEMBL2029271.

Listed here: items and their measured Stability.
Experiment: Metabolic stability in human hepatic S9 fraction assessed as compound remaining at 10 uM after 120 mins
Assay type: ADME, Liver
Conditions: s9, 2 h
measurement kind: Stability (%)

molecule: Cc1c(C(=O)N2CCC(NC(=O)OC(C)(C)C)(c3ccccc3)CC2)nn(-c2ccc(Cl)cc2Cl)c1-c1ccc(Cl)cc1
comparator: =
recorded result: 88
--
molecule: Cc1c(C(=O)NN2CCCCC2)nn(-c2ccc(Cl)cc2Cl)c1-c1ccc(Cl)cc1
comparator: =
recorded result: 47
--
molecule: Cc1c(C(=O)N2CCC(NC(=O)NC(C)(C)C)(c3ccccc3)CC2)nn(-c2ccc(Cl)cc2Cl)c1-c1ccc(Cl)cc1
comparator: =
recorded result: 88
--
molecule: Cc1c(C(=O)NCC2CCC(CNS(C)(=O)=O)CC2)nn(-c2ccc(Cl)cc2Cl)c1-c1ccc(Cl)cc1 (configuration not stated)
comparator: =
recorded result: 37
--
molecule: Cc1c(C(=O)N2CCC(NC(=O)NCc3ccccc3)(c3ccccc3)CC2)nn(-c2ccc(Cl)cc2Cl)c1-c1ccc(Cl)cc1
comparator: =
recorded result: 18
--
molecule: Cc1c(C(=O)NCC2CCC(CNS(N)(=O)=O)CC2)nn(-c2ccc(Cl)cc2Cl)c1-c1ccc(Cl)cc1 (configuration not stated)
comparator: =
recorded result: 62
--
molecule: Cc1c(C(=O)NC2CCN(C(=O)OC(C)(C)C)CC2)nn(-c2ccc(Cl)cc2Cl)c1-c1ccc(Cl)cc1
comparator: >
recorded result: 90

* * *

Target: Cannabinoid receptor 1 (Homo sapiens)
Assay: biochemical
Type: cell-based, CHO-K1
pKi: −log10 of the molar value.
Use 1 (yes) when the recorded pKi is no lower than 7; use 0 (no) when it is lower.

molecule: CCNC(=O)N1CCC(NC(=O)c2nn(-c3ccc(Cl)cc3Cl)c(-c3ccc(Cl)cc3)c2C)CC1
category label: 0 (no)
//
molecule: CC(=O)N1CCC[C@H](NC(=O)c2nn(-c3ccc(Cl)cc3Cl)c(-c3ccc(Cl)cc3)c2C)C1
category label: 1 (yes)
//
molecule: Cc1c(C(=O)NC2CCN(C(=O)OC(C)(C)C)CC2)nn(-c2ccc(Cl)cc2Cl)c1-c1ccc(Cl)cc1
category label: 1 (yes)
//
molecule: CCCNC(=O)N1CCC(NC(=O)c2nn(-c3ccc(Cl)cc3Cl)c(-c3ccc(Cl)cc3)c2C)CC1
category label: 0 (no)

* * *

Target: Cannabinoid receptor 1 (Homo sapiens, UniProt P21554)
Sequence (P21554 whole entry): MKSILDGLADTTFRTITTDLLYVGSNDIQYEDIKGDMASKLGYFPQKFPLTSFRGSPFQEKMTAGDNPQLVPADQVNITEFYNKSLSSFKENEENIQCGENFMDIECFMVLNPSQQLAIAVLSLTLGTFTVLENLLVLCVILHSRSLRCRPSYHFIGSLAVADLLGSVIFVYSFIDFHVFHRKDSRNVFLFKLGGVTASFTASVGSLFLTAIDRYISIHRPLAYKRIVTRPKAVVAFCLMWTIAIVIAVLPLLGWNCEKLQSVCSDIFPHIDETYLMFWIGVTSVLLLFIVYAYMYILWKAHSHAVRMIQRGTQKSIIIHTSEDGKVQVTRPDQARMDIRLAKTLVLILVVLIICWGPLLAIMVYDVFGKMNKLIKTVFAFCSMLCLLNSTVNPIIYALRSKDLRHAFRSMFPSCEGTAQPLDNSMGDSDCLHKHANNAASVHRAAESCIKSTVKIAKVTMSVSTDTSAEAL
Conditions: CHO-K1
Description: Antagonist activity at human CB1 receptor expressed in CHO-K1 cells co-expressing Galphaq16 assessed as inhibition of CP55940-induced intracellular calcium mobilization by fluorometry
measurement kind: Ke (nM)

compound: Cc1c(C(=O)NC2CCN(C(=O)OC(C)(C)C)CC2)nn(-c2ccc(Cl)cc2Cl)c1-c1ccc(Cl)cc1
recorded result: 4.7
//
compound: CCNC(=O)NCC1CCC(CNC(=O)c2nn(-c3ccc(Cl)cc3Cl)c(-c3ccc(Cl)cc3)c2C)CC1 (centres undefined)
recorded result: 135
//
compound: Cc1c(C(=O)NCC2CCC(CNC(=O)NC(C)C)CC2)nn(-c2ccc(Cl)cc2Cl)c1-c1ccc(Cl)cc1 (centres undefined)
recorded result: 351
//
compound: CCNC(=O)N1CCC[C@H](NC(=O)c2nn(-c3ccc(Cl)cc3Cl)c(-c3ccc(Cl)cc3)c2C)C1
recorded result: 280

* * *

Listed here: items and their measured Ke.
Target: Cannabinoid receptor 1 (Homo sapiens)
Details: CHO-K1

molecule: CCOC(=O)N1CCC[C@@H](NC(=O)c2nn(-c3ccc(Cl)cc3Cl)c(-c3ccc(Cl)cc3)c2C)C1
assay target: Cannabinoid receptor 1 (Homo sapiens)
Ke / nM: 10.4
--
molecule: Cc1c(C(=O)N2CCC(C(=O)O)(c3ccccc3)CC2)nn(-c2ccc(Cl)cc2Cl)c1-c1ccc(Cl)cc1
assay target: Cannabinoid receptor 1 (Homo sapiens)
Ke / nM: 1170
--
molecule: CCCCNC(=O)N1CCC[C@H](NC(=O)c2nn(-c3ccc(Cl)cc3Cl)c(-c3ccc(Cl)cc3)c2C)C1
assay target: Cannabinoid receptor 1 (Homo sapiens)
Ke / nM: 230
--
molecule: Cc1c(C(=O)N[C@H]2CCCNC2)nn(-c2ccc(Cl)cc2Cl)c1-c1ccc(Cl)cc1
assay target: Cannabinoid receptor 1 (Homo sapiens)
Ke / nM: 1880
--
molecule: CCCNC(=O)NC1(c2ccccc2)CCN(C(=O)c2nn(-c3ccc(Cl)cc3Cl)c(-c3ccc(Cl)cc3)c2C)CC1
assay target: Cannabinoid receptor 1 (Homo sapiens)
Ke / nM: 0.4
--
molecule: CCCCNC(=O)NC1(c2ccccc2)CCN(C(=O)c2nn(-c3ccc(Cl)cc3Cl)c(-c3ccc(Cl)cc3)c2C)CC1
assay target: Cannabinoid receptor 1 (Homo sapiens)
Ke / nM: 0.4
--
molecule: CCCCNC(=O)NCC1CCC(CNC(=O)c2nn(-c3ccc(Cl)cc3Cl)c(-c3ccc(Cl)cc3)c2C)CC1 (stereo not drawn)
assay target: Cannabinoid receptor 1 (Homo sapiens)
Ke / nM: 274
--
molecule: Cc1c(C(=O)N[C@H]2CCCN(C(=O)NC(C)C)C2)nn(-c2ccc(Cl)cc2Cl)c1-c1ccc(Cl)cc1
assay target: Cannabinoid receptor 1 (Homo sapiens)
Ke / nM: 265

* * *

Species: Homo sapiens
Experiment: Selectivity ratio of Ki for CB2 receptor to Ki for human CB1 receptor
measurement kind: Ratio Ki

molecule: Cc1c(C(=O)N[C@@H]2CCCN(C(=O)NC(C)C)C2)nn(-c2ccc(Cl)cc2Cl)c1-c1ccc(Cl)cc1
recorded result: 43
--
molecule: CCCCNC(=O)N1CCC(NC(=O)c2nn(-c3ccc(Cl)cc3Cl)c(-c3ccc(Cl)cc3)c2C)CC1
recorded result: 47
--
molecule: CCNC(=O)N1CCC(NC(=O)c2nn(-c3ccc(Cl)cc3Cl)c(-c3ccc(Cl)cc3)c2C)CC1
recorded result: 35
--
molecule: Cc1c(C(=O)N2CCC(NC(=O)OC(C)(C)C)(c3ccccc3)CC2)nn(-c2ccc(Cl)cc2Cl)c1-c1ccc(Cl)cc1
recorded result: 49.9
--
molecule: CCCCNC(=O)N1CCC[C@@H](NC(=O)c2nn(-c3ccc(Cl)cc3Cl)c(-c3ccc(Cl)cc3)c2C)C1
recorded result: 24
--
molecule: Cc1c(C(=O)N2CCC(NC(=O)NCc3ccccc3)(c3ccccc3)CC2)nn(-c2ccc(Cl)cc2Cl)c1-c1ccc(Cl)cc1
recorded result: 398
--
molecule: CCNC(=O)NC1(c2ccccc2)CCN(C(=O)c2nn(-c3ccc(Cl)cc3Cl)c(-c3ccc(Cl)cc3)c2C)CC1
recorded result: 12
--
molecule: Cc1c(C(=O)N2CCC(NC(=O)Nc3ccc(F)cc3)(c3ccccc3)CC2)nn(-c2ccc(Cl)cc2Cl)c1-c1ccc(Cl)cc1
recorded result: 33

* * *

Organism: Homo sapiens
Assay: Selectivity ratio of Ki for CB2 receptor to Ki for human CB1 receptor
Response field label: string, one of 1.0 (Ratio Ki strictly below 100) or 0.0.

molecule: Cc1c(C(=O)NC2CCN(C(=O)NC(C)C)CC2)nn(-c2ccc(Cl)cc2Cl)c1-c1ccc(Cl)cc1
category label: 0.0
--
molecule: CC(=O)NC1(c2ccccc2)CCN(C(=O)c2nn(-c3ccc(Cl)cc3Cl)c(-c3ccc(Cl)cc3)c2C)CC1
category label: 1.0
--
molecule: Cc1c(C(=O)N2CCC(NC(=O)Nc3ccc(N(C)C)cc3)(c3ccccc3)CC2)nn(-c2ccc(Cl)cc2Cl)c1-c1ccc(Cl)cc1
category label: 1.0
--
molecule: CC(=O)N1CCC[C@H](NC(=O)c2nn(-c3ccc(Cl)cc3Cl)c(-c3ccc(Cl)cc3)c2C)C1
category label: 0.0
--
molecule: CCCNC(=O)N1CCC(NC(=O)c2nn(-c3ccc(Cl)cc3Cl)c(-c3ccc(Cl)cc3)c2C)CC1
category label: 1.0
--
molecule: Cc1c(C(=O)N[C@@H]2CCCN(S(C)(=O)=O)C2)nn(-c2ccc(Cl)cc2Cl)c1-c1ccc(Cl)cc1
category label: 0.0
--
molecule: CCCNC(=O)N1CCC[C@@H](NC(=O)c2nn(-c3ccc(Cl)cc3Cl)c(-c3ccc(Cl)cc3)c2C)C1
category label: 1.0
--
molecule: CCOC(=O)N1CCC(NC(=O)c2nn(-c3ccc(Cl)cc3Cl)c(-c3ccc(Cl)cc3)c2C)CC1
category label: 0.0
--
molecule: CCCCNC(=O)NC1(c2ccccc2)CCN(C(=O)c2nn(-c3ccc(Cl)cc3Cl)c(-c3ccc(Cl)cc3)c2C)CC1
category label: 0.0
--
molecule: CCCNC(=O)N1CCC[C@H](NC(=O)c2nn(-c3ccc(Cl)cc3Cl)c(-c3ccc(Cl)cc3)c2C)C1
category label: 1.0
--
molecule: CCNC1(C(N)=O)CCN(C(=O)c2nn(-c3ccc(Cl)cc3Cl)c(-c3ccc(Cl)cc3)c2C)CC1
category label: 1.0
--
molecule: Cc1c(C(=O)NC2CCN(C(=O)NC(C)(C)C)CC2)nn(-c2ccc(Cl)cc2Cl)c1-c1ccc(Cl)cc1
category label: 0.0
--
molecule: Cc1c(C(=O)N2CCC(NC(=O)NC3CCCCC3)(c3ccccc3)CC2)nn(-c2ccc(Cl)cc2Cl)c1-c1ccc(Cl)cc1
category label: 1.0
--
molecule: Cc1c(C(=O)N2CCC(N)(c3ccccc3)CC2)nn(-c2ccc(Cl)cc2Cl)c1-c1ccc(Cl)cc1
category label: 1.0
--
molecule: Cc1c(C(=O)N[C@@H]2CCCN(C(=O)OC(C)(C)C)C2)nn(-c2ccc(Cl)cc2Cl)c1-c1ccc(Cl)cc1
category label: 0.0
--
molecule: CCOC(=O)N1CCC[C@H](NC(=O)c2nn(-c3ccc(Cl)cc3Cl)c(-c3ccc(Cl)cc3)c2C)C1
category label: 1.0
--
molecule: CCCNC(=O)NC1(c2ccccc2)CCN(C(=O)c2nn(-c3ccc(Cl)cc3Cl)c(-c3ccc(Cl)cc3)c2C)CC1
category label: 1.0
--
molecule: Cc1c(C(=O)N2CCC(NC(=O)NC(C)C)(c3ccccc3)CC2)nn(-c2ccc(Cl)cc2Cl)c1-c1ccc(Cl)cc1
category label: 0.0
